Listed here are compounds together with their documented Ki.
target: CDK6/Cyclin D1 (Homo sapiens (Human), UniProt Q00534); assay: biochemical; settings: CDK6_Ki (nM), non-phosphorylated CDK6/Cyclin D1, 2 mM ATP, Morrison fit
Sequence (Q00534 whole entry): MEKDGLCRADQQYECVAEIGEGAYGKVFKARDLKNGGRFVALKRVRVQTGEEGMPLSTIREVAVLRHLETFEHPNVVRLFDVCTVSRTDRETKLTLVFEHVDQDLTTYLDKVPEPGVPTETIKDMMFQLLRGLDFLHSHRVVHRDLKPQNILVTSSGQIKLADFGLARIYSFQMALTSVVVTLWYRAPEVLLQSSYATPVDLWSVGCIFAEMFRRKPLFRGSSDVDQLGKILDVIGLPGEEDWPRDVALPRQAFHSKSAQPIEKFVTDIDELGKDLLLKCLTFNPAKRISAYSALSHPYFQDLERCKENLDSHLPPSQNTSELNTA
Sequence (P24385 whole entry partner): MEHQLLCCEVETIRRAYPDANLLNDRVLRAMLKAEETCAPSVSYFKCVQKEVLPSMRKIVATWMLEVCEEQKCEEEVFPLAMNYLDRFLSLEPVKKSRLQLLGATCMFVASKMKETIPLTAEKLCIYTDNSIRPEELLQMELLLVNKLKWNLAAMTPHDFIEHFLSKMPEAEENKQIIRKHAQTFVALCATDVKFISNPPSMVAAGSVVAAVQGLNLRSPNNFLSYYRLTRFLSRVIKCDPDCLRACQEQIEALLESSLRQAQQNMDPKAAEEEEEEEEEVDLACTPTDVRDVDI
Give the value in nM but do not write nM after it.

Please review the entries below; each comes with its answer.
| COMPOUND | Ki [nM] |
| --- | --- |
| CC[C@@]1(O)CCC[C@H]1n1c(=O)ccc2cnc(NC3CCN(S(C)(=O)=O)CC3)nc21 (single isomer, unassigned) [Example 193] | 2.27 |
| C[C@@H]1[C@H](O)CC[C@H]1n1c(=O)c(Cl)cc2cnc(NC3CCN(S(C)(=O)=O)CC3)nc21 (single isomer, unassigned) [Example 203] | 1.53 |

Next compound, Ki to be filled in.
# input compound: CC(F)(F)CNS(=O)(=O)N1CCC(Nc2ncc3ccc(=O)n([C@@H]4CCC[C@@]4(C)O)c3n2)CC1 (single isomer, unassigned) [Example 66] ; wanted: its Ki
2.47
